Listed below: log10(IC50) values for each entry.
# test_details: Inhibition of Pseudomonas aeruginosa PvdP tyrosinase
# test_context: read-out: IC50
parameter: log10(IC50) (log10 of the value in µM)

query_smiles=CN(C)c1ccc(NC(=S)NCc2ccc(Cl)cc2)cc1 experimental_value=1.16
query_smiles=S=C(NCc1ccccc1Cl)Nc1ccccc1 experimental_value=0.90
query_smiles=S=C(NCc1ccc(Cl)cc1)Nc1ccccc1 experimental_value=-0.24
query_smiles=COc1ccc(CN=C(S)Nc2ccccc2)cc1 experimental_value=1.29
query_smiles=Cc1ccc(NC(=S)NCc2ccc(Cl)cc2)cc1 experimental_value=1.35
query_smiles=Fc1ccc(CNC(=S)Nc2ccccc2)cc1 experimental_value=1.13
query_smiles=NC(=S)Nc1ccccc1 experimental_value=2.24
